- METHOD NOTES: Cytotoxicity by MTT assay on J774A.1 macrophage cell line
- Format: cell-based, mouse
- SETTINGS: mouse, J774A.1 macrophage cells; MTT, 72 h incubation; mean (standard deviation)
List of CC50 at 72 h values.

COMPOUND	LIMIT OPERATOR	CC50 at 72 h, µM
CC1(C)CC(=O)c2cc(COC(=O)/C=C/C=C/c3ccc4c(c3)OCO4)ccc2S1 [Compound 10b]	=	22.5
COc1cccc2c1C(=O)c1c(O)c3c(c(O)c1C2=O)C[C@@](O)(C(=O)CO)C[C@@H]3O[C@H]1C[C@H](N)[C@H](O)[C@H](C)O1 [Doxorubicin, reference compound]	=	0.047
CCCCCCNCc1ccc2c(c1)C(=O)CC(C)(C)S2 [Compound 12b]	=	25.8
CCCCCCCCNCc1ccc2c(c1)C(=O)CC(C)(C)[S+]2[O-] (centres unmarked) [Compound 13]	=	40.9
CC1(C)CC(=O)c2cc(COC(=O)C/C=C/c3ccccc3)ccc2S1 [Compound 10a]	>	136
CC1(C)CC(=O)c2cc(CNC(=O)CCCCCCCCBr)ccc2S1 [Compound 11e]	=	58
CCCCNCc1ccc2c(c1)C(=O)CC(C)(C)S2 [Compound 12a]	=	33.2
CCCCCCCC(=O)NCc1ccc2c(c1)C(=O)CC(C)(C)S2 [Compound 11d]	=	137

====

- METHOD NOTES: Cytotoxicity by MTT assay on J774A.1 macrophage cell line
- Assay type: cell-based, mouse
- SETTINGS: mouse, J774A.1 macrophage cells; MTT, 72 h incubation; mean (standard deviation)
RESULT TYPE: CC50 at 72 h (µM)

>>> print(df.to_string())
                                   compound  unit_of_measure  limit_operator  observed_value
0  CCCCCCCCNCc1ccc2c(c1)C(=O)CC(C)(C)S2 [Compound 12c]               µM               =            22.6
1  CC1(C)CC(=O)c2cc(CNC(=O)/C=C/C=C/c3ccc4c(c3)OCO4)ccc2S1 [Compound 11c]               µM               >             119
2  CCCCCCCCCCNCc1ccc2c(c1)C(=O)CC(C)(C)S2 [Compound 12d]               µM               =            23.1
3  CC1(C)CC(=O)c2cc(CNC(=O)C/C=C/c3ccccc3)ccc2S1 [Compound 11a]               µM               =            31.6
4  CCCCCCCCNCc1ccc2c(c1)C(=O)CC(C)(C)S2(=O)=O [Compound 14]               µM               =            42.8

Recorded values, source paper PMC8069510.
